Task for the reader: assign each of the following sequences its reported self-splicing fitness (ln).
method description: self-splicing fitness, log relative to wild type (ln ratio); higher = more splicing; Tetrahymena group I intron in knt gene, E. coli kanamycin selection, DiMSum; sequences stand for … in CUCUCU…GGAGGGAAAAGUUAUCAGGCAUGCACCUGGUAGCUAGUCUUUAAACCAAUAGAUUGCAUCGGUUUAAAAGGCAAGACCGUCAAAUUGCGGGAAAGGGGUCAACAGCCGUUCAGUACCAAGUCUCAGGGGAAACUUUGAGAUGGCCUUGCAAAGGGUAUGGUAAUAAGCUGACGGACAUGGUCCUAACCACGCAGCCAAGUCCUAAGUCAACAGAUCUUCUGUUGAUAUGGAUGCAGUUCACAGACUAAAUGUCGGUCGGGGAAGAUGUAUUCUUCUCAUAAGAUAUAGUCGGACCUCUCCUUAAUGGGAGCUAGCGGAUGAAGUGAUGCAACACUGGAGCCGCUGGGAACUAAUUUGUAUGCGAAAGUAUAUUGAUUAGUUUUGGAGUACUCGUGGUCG;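 note: selection with 25 µg/mL kanamycin versus none on LB agar overnight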
setup conditions: 37 °C
One number for each entry.

// solved cases for self-splicing fitness (ln) follow
[[record]]
sequence = "UGGUAGCAAUAUUACGCAAU"
parameter = "self-splicing fitness (ln)"
obs_value = -2.56

[[record]]
sequence = "AUUGAGCAAUAUUACGGCAU"
parameter = "self-splicing fitness (ln)"
obs_value = -0.323

[[record]]
sequence = "CAUCAGCAAUAUUACGUUAU"
parameter = "self-splicing fitness (ln)"
obs_value = -2.02


// batch mode: one self-splicing fitness (ln) value per listed entry
1. CCGUAGCAAUAUUACGGGUG
2. GUAUAGCAAUAUUACGGCUA

**Result**
1: -2.11; 2: -0.383

// batch mode: one self-splicing fitness (ln) value per listed entry
1. CAGUAGCAAUAUUACGUGGU
2. GAAUAGCAAUAUUACGUUUG
3. GCAAAGCAAUAUUACGGCCC

**Result**
1: -2.54; 2: -1.05; 3: -0.618

====

method description: self-splicing fitness, log relative to wild type (ln ratio); higher = more splicing; Tetrahymena group I intron in knt gene, E. coli kanamycin selection, DiMSum; sequences stand for … in CUCUCU…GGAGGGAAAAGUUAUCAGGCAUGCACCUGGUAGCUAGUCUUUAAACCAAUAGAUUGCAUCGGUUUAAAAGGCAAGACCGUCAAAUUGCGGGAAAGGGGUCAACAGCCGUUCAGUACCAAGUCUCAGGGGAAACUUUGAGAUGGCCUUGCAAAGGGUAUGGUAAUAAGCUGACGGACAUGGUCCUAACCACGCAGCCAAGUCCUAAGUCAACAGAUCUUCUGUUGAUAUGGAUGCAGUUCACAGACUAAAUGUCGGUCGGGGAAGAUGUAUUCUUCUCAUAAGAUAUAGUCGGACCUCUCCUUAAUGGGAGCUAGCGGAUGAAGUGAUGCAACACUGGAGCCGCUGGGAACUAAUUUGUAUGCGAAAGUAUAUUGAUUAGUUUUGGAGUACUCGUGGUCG
setup conditions: 30 °C
parameter: self-splicing fitness (ln)
One number for each entry.

// batch mode: one self-splicing fitness (ln) value per listed entry
1. GAAGAGCAAUAUUACGCCUA
2. UCCUAGCAAUAUUACGCAGU
3. GGCAAGCAAUAUUACGGUGU
4. CGGCAGCAAUAUUACGUUUA
5. UCACAGCAAUAUUACGGGGA
6. UCAAAGCAAUAUUACGAGUA

**Result**
[-2.55, -3.03, -1.2, -2.06, -1.15, -2.07]

// batch mode: one self-splicing fitness (ln) value per listed entry
1. ACUCAGCAAUAUUACGAGAG
2. CCUCAGCAAUAUUACGCUCA
3. CUCCAGCAAUAUUACGCGCA
4. ACCAAGCAAUAUUACGAUAG
5. GUUCAGCAAUAUUACGCAGU
6. ACGAAGCAAUAUUACGGUUC
7. UUACAGCAAUAUUACGUUGA
8. CUCAAGCAAUAUUACGCGGG

**Result**
[-2.02, -2.6, -3.34, -4.36, -1.18, -4.09, -1.57, -3.15]

// batch mode: one self-splicing fitness (ln) value per listed entry
1. UCUGAGCAAUAUUACGACUU
2. UUCUAGCAAUAUUACGCCGU
3. CAGGAGCAAUAUUACGCGAG
4. GCAGAGCAAUAUUACGACGG
5. AAUGAGCAAUAUUACGGGUC
6. CGGGAGCAAUAUUACGUGGC
7. AAGGAGCAAUAUUACGCAGG

**Result**
1. -3.11
2. -2.06
3. -2.59
4. -2.22
5. -2.57
6. -2.62
7. -3.65

// batch mode: one self-splicing fitness (ln) value per listed entry
1. CCGUAGCAAUAUUACGUAUU
2. AAACAGCAAUAUUACGGGGG
3. GUACAGCAAUAUUACGCAUA
4. UUAUAGCAAUAUUACGUUAA
5. CACGAGCAAUAUUACGCUCU
6. CAUUAGCAAUAUUACGAGGA
7. AUCUAGCAAUAUUACGGGGG
8. GACCAGCAAUAUUACGUGUA

**Result**
-4.16
-3.28
-2.65
-2.07
-2.57
-2.75
-1.65
-0.635

// batch mode: one self-splicing fitness (ln) value per listed entry
1. CCCUAGCAAUAUUACGAGGC
2. AAACAGCAAUAUUACGAUCC
3. AAAGAGCAAUAUUACGCGGU
4. AUUGAGCAAUAUUACGGUAA

**Result**
1. -4.41
2. -1.8
3. -3.49
4. -3.25

// batch mode: one self-splicing fitness (ln) value per listed entry
1. UCCUAGCAAUAUUACGGGGA
2. CCGGAGCAAUAUUACGUACA
3. ACGUAGCAAUAUUACGGCGG
4. AUCCAGCAAUAUUACGGAUA

**Result**
-2.59
-3.36
-1.65
-3.19

// batch mode: one self-splicing fitness (ln) value per listed entry
1. ACUAAGCAAUAUUACGAGUG
2. ACCCAGCAAUAUUACGAGAG
3. UGGUAGCAAUAUUACGAUCU
4. CGAAAGCAAUAUUACGAUCC
5. UCUUAGCAAUAUUACGGACA
6. AGAGAGCAAUAUUACGUCGU

**Result**
1. -1.42
2. -2.16
3. -0.554
4. -1.03
5. -2.63
6. -3.77

// batch mode: one self-splicing fitness (ln) value per listed entry
1. CUAGAGCAAUAUUACGAGUG
2. UUACAGCAAUAUUACGCUUU
3. GGCGAGCAAUAUUACGGUGC
4. GGUUAGCAAUAUUACGAUAC
5. GAAGAGCAAUAUUACGCACC
6. ACCGAGCAAUAUUACGACGC
7. GCGCAGCAAUAUUACGGAGU

**Result**
1. -0.496
2. -3.28
3. -2.76
4. -0.314
5. -0.341
6. -0.285
7. -2
